The values you see were collected from ChEMBL document CHEMBL3046603.

What MIC was measured for each of the following?
# System: Fusarium oxysporum
# Protocol summary: Antifungal activity against Fusarium oxysporum after 72 to 96 hr by two-fold serial dilution method
# Type: functional

Molecule: COc1ccc(C2NC(c3ccc(OC)cc3)C3CCCC2C3=NNC(=O)c2ccc(N)cc2)cc1 (stereo not given)
MIC: 100 µg/mL

Molecule: Nc1ccc(C(=O)NN=C2C3CCCC2C(c2ccccc2)NC3c2ccccc2)cc1 (stereo not given)
MIC: 200 µg/mL

Molecule: Nc1ccc(C(=O)NN=C2C3CCCC2C(c2ccc(Cl)cc2)NC3c2ccc(Cl)cc2)cc1 (stereo not given)
MIC: 200 µg/mL

Molecule: Cc1ccc(C2NC(c3ccc(C)cc3)C3CCCC2C3=NNC(=O)c2ccc(N)cc2)cc1 (stereo not given)
MIC: 100 µg/mL

Let us move to another entry and its MIC.
Fusarium oxysporum assay, molecule Nc1ccc(C(=O)NN=C2C3CCCC2C(c2ccc(F)cc2)NC3c2ccc(F)cc2)cc1 (stereo not given) , recorded MIC = 50 µg/mL

---

What MIC was measured for each of the following?
# Tested on: Fusarium oxysporum
# Protocol summary: Antifungal activity against Fusarium oxysporum after 72 to 96 hr by two-fold serial dilution method
# Type: functional
One number for each entry, in µg/mL.

See these solved cases before continuing.
Compound: Nc1ccc(C(=O)NN=C2C3CCCC2C(c2ccccc2Cl)NC3c2ccccc2Cl)cc1 (stereo not drawn)
Recorded measurement: 100
//
Compound: Nc1ccc(C(=O)NN=C2C3CCCC2C(c2ccc(Br)cc2)NC3c2ccc(Br)cc2)cc1 (stereo not drawn)
Recorded measurement: 100

Record C[C@@H]1[C@H](O)[C@@H](C)/C=C/C=C/C=C/C=C/C=C/C=C/C=C/[C@H](O[C@@H]2O[C@H](C)[C@@H](O)[C@H](N)[C@@H]2O)C[C@@H]2O[C@](O)(C[C@@H](O)C[C@@H](O)[C@H](O)CC[C@@H](O)C[C@@H](O)CC(=O)O[C@H]1C)C[C@H](O)[C@H]2C(=O)O [AMPHOTERICIN B] . Reported MIC: 25

---

What MIC was measured for each of the following?
# Tested on: Salmonella typhimurium
# Protocol summary: Antibacterial activity against Salmonella enterica subsp. enterica serovar Typhimurium MTCC 98 after 24 hr two-fold serial dilution method
# Assay type: functional
# Experimental setup: MTCC 98, 24 h
Your answer should be a number followed by the unit of measure.

See these solved cases before continuing.
Molecule: COc1ccc(C2NC(c3ccc(OC)cc3)C3CCCC2C3=NNC(=O)c2ccc(N)cc2)cc1 (centres undefined)
Recorded measurement: 200 µg/mL

Molecule: Nc1ccc(C(=O)NN=C2C3CCCC2C(c2ccccc2)NC3c2ccccc2)cc1 (centres undefined)
Recorded measurement: 200 µg/mL

Molecule: CN[C@@H]1[C@H](O[C@H]2[C@H](O[C@H]3[C@H](O)[C@@H](O)[C@H](N=C(N)N)[C@@H](O)[C@@H]3N=C(N)N)O[C@@H](C)[C@]2(O)C=O)O[C@@H](CO)[C@H](O)[C@H]1O
Recorded measurement: 25 µg/mL

Let us move to another entry and its MIC.
Record Nc1ccc(C(=O)NN=C2C3CCCC2C(c2ccc(F)cc2)NC3c2ccc(F)cc2)cc1 (centres undefined) . Reported MIC: 100 µg/mL

---

# System: Salmonella typhimurium
# Protocol summary: Antibacterial activity against Salmonella enterica subsp. enterica serovar Typhimurium MTCC 98 after 24 hr two-fold serial dilution method
# Assay type: functional
# Experimental setup: MTCC 98, 24 h
Quantity name: MIC (µg/mL)
Give bare numbers, in µg/mL.

Compound: Nc1ccc(C(=O)NN=C2C3CCCC2C(c2ccc(Br)cc2)NC3c2ccc(Br)cc2)cc1 (centres undefined)
MIC, µg/mL: 200

List MIC for every entry below, keeping the order given.
1. Nc1ccc(C(=O)NN=C2C3CCCC2C(c2ccc(Cl)cc2)NC3c2ccc(Cl)cc2)cc1 (centres undefined)
2. Cc1ccc(C2NC(c3ccc(C)cc3)C3CCCC2C3=NNC(=O)c2ccc(N)cc2)cc1 (centres undefined)
3. Nc1ccc(C(=O)NN=C2C3CCCC2C(c2ccccc2Cl)NC3c2ccccc2Cl)cc1 (centres undefined)

**A:**
1: 200; 2: 200; 3: 50

---

# Tested on: Cryptococcus neoformans
# Protocol summary: Antifungal activity against Cryptococcus neoformans after 72 to 96 hr by two-fold serial dilution method
# Assay type: functional
What MIC was measured for each of the following?
Answers are plain numbers, in µg/mL.

See these solved cases before continuing.
Compound: Nc1ccc(C(=O)NN=C2C3CCCC2C(c2ccccc2Cl)NC3c2ccccc2Cl)cc1 (configuration not stated)
Unit annotation: µg/mL
MIC: 100
//
Compound: Nc1ccc(C(=O)NN=C2C3CCCC2C(c2ccc(Br)cc2)NC3c2ccc(Br)cc2)cc1 (configuration not stated)
Unit annotation: µg/mL
MIC: 100
//
Compound: COc1ccc(C2NC(c3ccc(OC)cc3)C3CCCC2C3=NNC(=O)c2ccc(N)cc2)cc1 (configuration not stated)
Unit annotation: µg/mL
MIC: 200
//
Compound: Nc1ccc(C(=O)NN=C2C3CCCC2C(c2ccc(F)cc2)NC3c2ccc(F)cc2)cc1 (configuration not stated)
Unit annotation: µg/mL
MIC: 200
//
Compound: Cc1ccc(C2NC(c3ccc(C)cc3)C3CCCC2C3=NNC(=O)c2ccc(N)cc2)cc1 (configuration not stated)
Unit annotation: µg/mL
MIC: 100

List MIC for every entry below, keeping the order given.
1. C[C@@H]1[C@H](O)[C@@H](C)/C=C/C=C/C=C/C=C/C=C/C=C/C=C/[C@H](O[C@@H]2O[C@H](C)[C@@H](O)[C@H](N)[C@@H]2O)C[C@@H]2O[C@](O)(C[C@@H](O)C[C@@H](O)[C@H](O)CC[C@@H](O)C[C@@H](O)CC(=O)O[C@H]1C)C[C@H](O)[C@H]2C(=O)O
2. Nc1ccc(C(=O)NN=C2C3CCCC2C(c2ccc(Cl)cc2)NC3c2ccc(Cl)cc2)cc1 (configuration not stated)

**A:**
[25, 200]
